# Test system: Plasmodium berghei
# protocol.description: Screen against P. berghei liver stage (PbLuc), transformed with Luciferase, at 10uM
# Assay type: functional, HepG2
# run.parameters: tested at 10 uM
Out of some 69,000 compounds screened, about 8,600 (12%) showed an effect of 50% or more. The entries come from a sample that favours strong results as a whole.
property.label: INHIBITION (%)

* COCCN(Cc1noc(-c2ccc(OC)cc2)n1)C1CC1 | 15.5
* Cc1ccc(CN(Cc2cc(C)no2)C2CC2)cc1 | 53.2
* O=c1c2c[nH]c(N3CCCC3)nc-2cn1CCc1ccc(Cl)cc1 | 15.1
* COc1cc2c(cc1CNC(=O)C(C)n1ccnc1C(C)C)OCCO2 (stereo unspecified) | 42.3
* COc1ccc(CN(Cc2cc(C)no2)C2CC2)cc1 | 92.2
* CC(C)Oc1ncccc1CNC(=O)c1ccccn1 | -48.4
* Cc1cccc(CN2CC[C@@H]3[C@@H]2CCN3C(=O)c2cnoc2C)n1 | -17
* NC(=O)CN1CCC(c2cccc(Oc3ccccc3)n2)CC1 | -11.4
* Cc1oncc1C(=O)N1CC[C@H]2[C@@H]1CCC(=O)N2c1cccnc1 | 18.3
* Cc1oncc1C(=O)N1CC[C@@H]2[C@@H]1CC(=O)N2Cc1cccnc1 | 8.66
* COc1cccc(CNC(=O)C(C)n2ccnc2C(C)C)c1OC (stereo unspecified) | 62.1
